read-out: Glutamate-cysteine ligase catalytic (GCLC), GCLC (gene 2729); experiment: LTEA_HepaRG_GCLC: Life Technologies and Expression Analysis (LTEA) Assay for Glutamate-cysteine ligase catalytic (GCLC) using HepaRG (AID 2283498); details: mRNA level, 48 h; actives raise or lower the signal
The source made the active and inactive calls. The calls were made as follows: active = hit-call score of the fitted dose curve at least 0.9, where 1 is the maximum; inactive = score below 0.9.
recorded_endpoint: outcome

Worked cases, outcome given:
# compound, experimental_value
measured = [
    ("Cc1ccc(S(=O)(=O)NC(=O)NN2CCCCCC2)cc1", "inactive"),
    ("CCn1nc(C)c2c1C(=O)NCC(c1ccc(O)cc1)=N2", "inactive"),
    ("Cn1c(=O)c2[nH]cnc2n(C)c1=O", "inactive"),
    ("CC(C)CC(C)O (stereo not given)", "inactive"),
]

# batch: return outcome for each of the 6 compounds below
1. OC(Cn1cncn1)(Cn1cncn1)c1ccc(F)cc1F
2. CC(C)C(=O)Nc1ccc([N+](=O)[O-])c(C(F)(F)F)c1
3. CC1(C)C(=O)N(Cl)C(=O)N1Cl
4. Nc1ccn([C@@H]2O[C@H](CO)[C@@H](O)[C@@H]2O)c(=O)n1
5. CCCCCOC(C)=O
6. Cc1nccn1-c1ccc(Sc2cccc(C3(C(N)=O)CCOCC3)c2)cc1

Resp:
["inactive", "inactive", "inactive", "inactive", "inactive", "inactive"]

* * *

read-out: Alkaline Phosphatase, Placental (ALPP) gene, ALPP (gene 250); experiment: LTEA_HepaRG_ALPP: Life Technologies and Expression Analysis (LTEA) Assay for Alkaline Phosphatase, Placental (ALPP) gene using HepaRG (AID 2283468); conditions: mRNA level, 48 h; actives raise or lower the signal;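 as to AC50: differentiated human HepaRG liver cells in serum-free induction medium; ALPP transcript by TaqMan qRT-PCR normalized to ACTB GAPDH and POLR2A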
Activity calls are given as the source filed them. Rule for the calls: active = hit-call score of the fitted dose curve at least 0.9, where 1 is the maximum; inactive = score below 0.9.
recorded_endpoint: AC50

Worked cases, AC50 given:
# compound, AC50
records = [
    ("C[C@@H](Oc1ccc(CNC(=O)c2cccnc2Oc2ccc3c(c2)OCO3)c(F)c1)C(=O)O", "inactive"),
    ("CCCCCOC(C)=O", "inactive"),
    ("OC(Cn1cncn1)(Cn1cncn1)c1ccc(F)cc1F", "inactive"),
    ("CC(C)c1nnc2ccc(-c3ocnc3-c3cc(F)ccc3F)cn12", "39.6 µM (active)"),
]

# batch: return AC50 for each of the 7 compounds below
1. CCCCC(CC)C(=O)OCCOCCOCCOC(=O)C(CC)CCCC (stereo unspecified)
2. OC[C@H]1O[C@@H]2O[C@H]3[C@H](O)[C@@H](O)[C@@H](O[C@H]4[C@H](O)[C@@H](O)[C@@H](O[C@H]5[C@H](O)[C@@H](O)[C@@H](O[C@H]6[C@H](O)[C@@H](O)[C@@H](O[C@H]7[C@H](O)[C@@H](O)[C@@H](O[C@H]1[C@H](O)[C@H]2O)O[C@@H]7CO)O[C@@H]6CO)O[C@@H]5CO)O[C@@H]4CO)O[C@@H]3CO
3. c1ccc(C(O[C@@H]2CCCN(CCc3ccc4c(c3)OCO4)C2)c2ccccc2)cc1
4. CCc1cccc(CC)c1N
5. CCCCCCCC1CCC(=O)O1 (stereo unspecified)
6. CCCC(CCC)C(=O)O
7. C=CN1CCCC1=O

Resp:
["inactive", "inactive", "68.5 µM (active)", "inactive", "inactive", "inactive", "inactive"]

* * *

read-out: CD69, CD69 (gene 969); test: BSK_SAg_CD69: BioMAP Diversity Plus: SAg Assay for CD69 Biomarker Activity (AID 2283089); conditions: primary human HUVEC with PBMC; actives raise or lower the signal
Active and inactive are the calls of the source. The calls were made as follows: active = hit-call score of the fitted dose curve at least 0.9, where 1 is the maximum; inactive = score below 0.9.
Pick one and only one: active, inactive

See these solved cases before continuing.
# compound, cat
rows = [
    ("C[Si](C)(C)C(F)(F)C(F)(F)C(F)(F)F", "inactive"),
    ("CCc1cccc(CC)c1N", "inactive"),
    ("FC(F)C(F)(F)COCC1CO1 (centres undefined)", "inactive"),
    ("FC(F)(F)C(F)(F)C(F)(F)C(F)(F)C(F)(F)C(F)(F)I", "inactive"),
]

Req: Which outcome was entered for the compound CCCCCCCC1CCC(=O)O1 (centres undefined) in this test?
Resp: inactive

Req: Which outcome was entered for the compound O=S(=O)(O)CCC(F)(F)C(F)(F)C(F)(F)C(F)(F)C(F)(F)C(F)(F)F in this test?
Resp: inactive

Req: Which outcome was entered for the compound Nc1ccn([C@@H]2O[C@H](CO)[C@@H](O)[C@@H]2O)c(=O)n1 in this test?
Resp: inactive

Req: Which outcome was entered for the compound CCCC(CCC)C(=O)O in this test?
Resp: inactive

Req: Which outcome was entered for the compound CCn1nc(C)c2c1C(=O)NCC(c1ccc(O)cc1)=N2 in this test?
Resp: inactive

Req: Which outcome was entered for the compound CC1(C)C(=O)N(Cl)C(=O)N1Cl in this test?
Resp: inactive

Req: Which outcome was entered for the compound FC(F)(F)COC(OCC(F)(F)F)OCC(F)(F)F in this test?
Resp: inactive

Req: Which outcome was entered for the compound Cc1cccc(O)c1C in this test?
Resp: inactive

Req: Which outcome was entered for the compound S=P(N1CC1)(N1CC1)N1CC1 in this test?
Resp: inactive

Req: Which outcome was entered for the compound OC(CCl)CCl in this test?
Resp: inactive

Req: Which outcome was entered for the compound CCCOc1ccc(S(=O)(=O)N2CCN(CC)CC2)cc1-c1nc2c(CC)n(Cc3ccccn3)nc2c(=O)[nH]1 in this test?
Resp: inactive

Req: Which outcome was entered for the compound C=CN1CCCC1=O in this test?
Resp: inactive

Req: Which outcome was entered for the compound CCCCCCCCCCCCCCO in this test?
Resp: active

Req: Which outcome was entered for the compound CNC(C)=O in this test?
Resp: inactive

Req: Which outcome was entered for the compound COCc1nnc(-c2ccc[n+]([O-])c2)n1-c1c(Cl)c(Cl)cc2[nH]c(=O)c(=O)[nH]c12 in this test?
Resp: inactive

Req: Which outcome was entered for the compound CC(C)C(=O)Nc1ccc([N+](=O)[O-])c(C(F)(F)F)c1 in this test?
Resp: active

Req: Which outcome was entered for the compound CCOC(N)=O in this test?
Resp: inactive

* * *

Read-out: Signal transducer and activator of transcription 3 (Homo sapiens) (UniProt P40763)
Sequence (P40763 whole entry, looked up): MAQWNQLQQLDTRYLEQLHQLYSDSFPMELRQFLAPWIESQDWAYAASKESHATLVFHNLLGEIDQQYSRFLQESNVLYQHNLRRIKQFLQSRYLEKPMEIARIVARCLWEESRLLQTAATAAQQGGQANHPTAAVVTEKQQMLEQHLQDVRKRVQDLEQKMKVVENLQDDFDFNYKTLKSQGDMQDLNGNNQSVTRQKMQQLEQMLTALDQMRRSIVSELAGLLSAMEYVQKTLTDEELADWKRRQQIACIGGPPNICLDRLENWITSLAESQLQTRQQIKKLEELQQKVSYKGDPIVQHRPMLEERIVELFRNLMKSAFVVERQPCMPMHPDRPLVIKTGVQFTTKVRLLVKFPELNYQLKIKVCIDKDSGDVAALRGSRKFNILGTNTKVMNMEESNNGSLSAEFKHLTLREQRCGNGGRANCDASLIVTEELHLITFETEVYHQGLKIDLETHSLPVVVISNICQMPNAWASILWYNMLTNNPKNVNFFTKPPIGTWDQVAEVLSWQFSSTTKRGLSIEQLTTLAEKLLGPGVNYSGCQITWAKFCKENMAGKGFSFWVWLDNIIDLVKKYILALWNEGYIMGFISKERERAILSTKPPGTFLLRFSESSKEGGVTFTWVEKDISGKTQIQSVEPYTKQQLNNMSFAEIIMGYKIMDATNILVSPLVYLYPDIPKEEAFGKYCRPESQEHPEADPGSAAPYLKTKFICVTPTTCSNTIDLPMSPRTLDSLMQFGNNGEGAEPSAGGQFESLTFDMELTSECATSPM
Assay: LTEA_HepaRG_STAT3: Life Technologies and Expression Analysis (LTEA) Assay for Signal transducer and activator of transcription (STAT3) using HepaRG (AID 2283529)
Settings: mRNA level, 48 h; actives raise or lower the signal
Protocol: LTEA_HepaRG is a cell based, multiplexed-readout assay that uses HepaRG, a human liver cell line, with measurements taken at 48 hours after chemical dosing on a 96-well plate.LTEA_HepaRG_STAT3 is one of 102 assay component(s) measured in the LTEA HepaRG cell culture assay. It is a marker of Cell proliferation, survival, death.Data from the assay component LTEA_HepaRG_STAT3 was analyzed into 1 endpoint. […]
Activity calls are given as the source filed them. The calls were made as follows: active = hit-call score of the fitted dose curve at least 0.9, where 1 is the maximum; inactive = score below 0.9.
recorded_endpoint: outcome

# compound, recorded_endpoint, experimental_value
rows = [
    ("CC(C)CC(C)O (centres undefined)", "outcome", "inactive"),
    ("CCCOc1ccc(S(=O)(=O)N2CCN(CC)CC2)cc1-c1nc2c(CC)n(Cc3ccccn3)nc2c(=O)[nH]1", "outcome", "inactive"),
    ("CC[C@H](C)C(=O)O[C@H]1C[C@H](O)C=C2C=C[C@H](C)[C@H](CC[C@@H](O)C[C@@H](O)CC(=O)O)[C@H]21", "outcome", "inactive"),
    ("COc1cc(C(C)C)c2c(c1)S(=O)(=O)N(COc1cc(=O)n3cccc(OCCN4CCCCC4)c3n1)C2=O", "outcome", "inactive"),
]

* * *

assay: APR_HepG2_CellCycleArrest_72hr: Apredica 72-hour HepG2 Assay for Cell Cycle Arrest (AID 2282914); conditions: high-content imaging, actives raise or lower the signal
The source made the active and inactive calls. Rule for the calls: active = hit-call score of the fitted dose curve at least 0.9, where 1 is the maximum; inactive = score below 0.9.
recorded_endpoint: AC50

Worked cases, AC50 given:
# compound, recorded_endpoint, experimental_value
rows = [
    ("CCc1cccc(CC)c1N", "AC50", "inactive"),
    ("C[C@@H](Oc1ccc(CNC(=O)c2cccnc2Oc2ccc3c(c2)OCO3)c(F)c1)C(=O)O", "AC50", "inactive"),
    ("C[C@]12C=CC(=O)C=C1CC[C@H]1[C@@H]3C[C@@H](O)[C@](O)(C(=O)CO)[C@@]3(C)C[C@H](O)[C@@]12F", "AC50", "inactive"),
    ("CCOc1ccc2[nH]cc(C(=O)NCc3ccccc3)c(=O)c2n1", "AC50", "inactive"),
    ("CCCCC(CC)C(=O)OCCOCCOCCOC(=O)C(CC)CCCC (configuration not stated)", "AC50", "79.2 µM (active)"),
    ("CCCCOC(=O)c1ccccc1", "AC50", "inactive"),
]

Req: Recorded AC50 for c1ccc2cc3ccccc3cc2c1 , please?
Resp: 110 µM (active)
